tested on: Staphylococcus aureus; experiment: Antibacterial activity against Staphylococcus aureus ATCC 29213 measured after 16 to 18 hrs by CLSI method; format: functional; details: time 16-18 hrs
Answer each item with its documented MIC.
Give bare numbers, in mg/L.

The following molecules have reported results that may help.
{"molecule": "CCCC[N+](C)(CCCC)CCCCCOc1ccc(C2CC(=O)c3c(OC)cc(OCCCCC[N+](C)(CCCC)CCCC)c(CC=C(C)C)c3O2)cc1.[I-].[I-] (configuration not stated)", "assay_metric": "MIC", "unit_symbol": "mg/L", "quantitative_result": 1}
{"molecule": "COc1cc(OCCCCN2CCOCC2)c(CC=C(C)C)c2c1C(=O)CC(c1ccc(OCCCCN3CCOCC3)cc1)O2 (configuration not stated)", "assay_metric": "MIC", "unit_symbol": "mg/L", "quantitative_result": 32}
{"molecule": "COc1cc(OCCCCN2CCCC(C)C2)c(CC=C(C)C)c2c1C(=O)CC(c1ccc(OCCCCN3CCCC(C)C3)cc1)O2 (configuration not stated)", "assay_metric": "MIC", "unit_symbol": "mg/L", "quantitative_result": 16}
{"molecule": "COc1cc(OCCCCCN2CCOCC2)c(CC=C(C)C)c2c1C(=O)CC(c1ccc(OCCCCCN3CCOCC3)cc1)O2 (configuration not stated)", "assay_metric": "MIC", "unit_symbol": "mg/L", "quantitative_result": 16}

-- ask Form entry - test system: Staphylococcus aureus; read-out: MIC; molecule: COc1cc(OCCCCCN2CCCC(C)C2)c(CC=C(C)C)c2c1C(=O)CC(c1ccc(OCCCCCN3CCCC(C)C3)cc1)O2 (configuration not stated)
-- reply 16

----------
Answer each item with its documented MIC.
test system: Staphylococcus aureus; experiment: Antibacterial activity against Staphylococcus aureus ATCC 29213 measured after 16 to 18 hrs by CLSI method; assay type: functional; details: time 16-18 hrs
One number for each entry, in µg/mL.

{"compound": "COc1cc(OCCCCCN2CCC(C)CC2)c(CC=C(C)C)c2c1C(=O)CC(c1ccc(OCCCCCN3CCC(C)CC3)cc1)O2 (stereo not drawn)", "test_system": "Staphylococcus aureus", "unit_symbol": "µg/mL", "MIC": 8}

API: the following record is the query input.
-- ask Dear colleague, I am looking for the recorded MIC of the following compound: COc1cc(OCCCCCN2CCCCC2C)c(CC=C(C)C)c2c1C(=O)CC(c1ccc(OCCCCCN3CCCCC3C)cc1)O2 (stereo not drawn)
-- reply 32

----------
assay: Hemolytic activity in sheep erythrocytes incubated for 1 hr by absorbance based analysis; format: toxicity, cell-based, Ovis aries, Erythrocyte
assay_metric: HC50 at 1 h

{"compound": "CCCN(CCC)CCCCOc1ccc(C2CC(=O)c3c(OC)cc(OCCCCN(CCC)CCC)c(CC=C(C)C)c3O2)cc1 (stereo not given)", "HC50 at 1 h": "> 1280 µg/mL"}

Batch lookup, HC50 at 1 h per entry.
1. COc1cc(OCCCCCN2CCCCC2C)c(CC=C(C)C)c2c1C(=O)CC(c1ccc(OCCCCCN3CCCCC3C)cc1)O2 (stereo not given)
2. COc1cc(OCCCN(CC(C)C)CC(C)C)c(CC=C(C)C)c2c1C(=O)CC(c1ccc(OCCCN(CC(C)C)CC(C)C)cc1)O2 (stereo not given)
3. COc1cc(OCCCCN2CCSCC2)c(CC=C(C)C)c2c1C(=O)CC(c1ccc(OCCCCN3CCSCC3)cc1)O2 (stereo not given)
4. CCCCN(CCCC)CCCOc1ccc(C2CC(=O)c3c(OC)cc(OCCCN(CCCC)CCCC)c(CC=C(C)C)c3O2)cc1 (stereo not given)
5. COc1cc(OCCCN2CCC(C)CC2)c(CC=C(C)C)c2c1C(=O)CC(c1ccc(OCCCN3CCC(C)CC3)cc1)O2 (stereo not given)
6. CCCCN(CCCC)CCCCCOc1ccc(C2CC(=O)c3c(OC)cc(OCCCCCN(CCCC)CCCC)c(CC=C(C)C)c3O2)cc1 (stereo not given)
7. COc1cc(OCCCN2CCSCC2)c(CC=C(C)C)c2c1C(=O)CC(c1ccc(OCCCN3CCSCC3)cc1)O2 (stereo not given)

-- reply
1. 292 µg/mL
2. > 1280 µg/mL
3. > 640 µg/mL
4. 810 µg/mL
5. > 1280 µg/mL
6. 980 µg/mL
7. > 640 µg/mL

Batch lookup, HC50 at 1 h per entry.
1. COc1cc(OCCCN2CCN(C)CC2)c(CC=C(C)C)c2c1C(=O)CC(c1ccc(OCCCN3CCN(C)CC3)cc1)O2 (stereo not given)
2. CCCC[N+](C)(CCCC)CCCCCOc1ccc(C2CC(=O)c3c(OC)cc(OCCCCC[N+](C)(CCCC)CCCC)c(CC=C(C)C)c3O2)cc1.[I-].[I-] (stereo not given)

-- reply
> 1280 µg/mL
> 1280 µg/mL
